target: T1, FcRn-p3 fusion protein (human, UniProt P55899 24-297; P61769 21-119); assay: phage ELISA pH6 (est.)
T1 construct: baculovirus expressed; coated on ELISA wells; not shown: amino terminal part of bacteriophage p3 protein and CVDE protein
T1 sequence (P55899 24-297, chain 1 of 2): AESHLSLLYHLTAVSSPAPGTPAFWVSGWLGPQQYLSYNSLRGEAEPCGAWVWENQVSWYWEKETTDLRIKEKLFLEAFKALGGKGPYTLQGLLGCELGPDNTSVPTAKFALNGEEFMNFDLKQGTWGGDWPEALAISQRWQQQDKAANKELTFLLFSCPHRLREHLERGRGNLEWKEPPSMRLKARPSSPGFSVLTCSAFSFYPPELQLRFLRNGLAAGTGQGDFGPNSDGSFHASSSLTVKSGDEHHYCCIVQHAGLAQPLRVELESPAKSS
T1 sequence (P61769 21-119, chain 2 of 2): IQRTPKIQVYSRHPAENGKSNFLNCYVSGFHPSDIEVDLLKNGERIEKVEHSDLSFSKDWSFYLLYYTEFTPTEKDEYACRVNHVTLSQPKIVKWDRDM
Catalogue of binders with associated Ratio/FWT

{"BINDER": "C6A_04 (other, EU numbering) CPPCPAPELLGGPSVFLFPPKPKDTLMISRTPEVTCVVVDVSHEDPEVKFNWYVDGVEVHNAKTKPREEQYNSTYRVVSVLTVLHQDWLNGKEYKCKVSNKALPAPIEKTISKAKGRPREPQVYTLPPSRDELTKNQVSLTCLVKGFYPSDIAVEWVSNGQPENNYKTTPPVLDSDGSFFLYSKLTVDKSRWQQGNVFSCSVMHEALHYHYTQKSLSLSPGK", "TEST_READOUT": "Ratio/FWT", "VALUE_REPORTED": "9.4 fold"}

Data request: For the binder shown here, C7A_49 (other, EU numbering) CPPCPAPELLGGPSVFLFPPKPKDTLMISRTPEVTCVVVDVSHEDPEVKFNWYVDGVEVHNAKTKPREEQYNSTYRVVSVLTVLHQDWLDGKEYKCKVSNKALPVPIEKTISKAKGQPREPQVYTLPPSRDELTKNQVSLTCLVKGFYPSDIAVEWESNGQPENNYKTAPPVLDSDGSFFLYSKLTVDKSRWQQGNVFSCSVMHEALHYHYTQKSLSLSPGK , give the reported Ratio/FWT.
Data returned: 5.3 fold

Data request: Query: Ratio/FWT; subject: T7A_35 (other, EU numbering) CPPCPAPELLGGPSVFLFPPKPKDTLMISRTPEVTCVVVDVSHEDPEVKFNWYVDGVEVHNAKTKPREEQYNSTYRVVSVLTVLHQDWLDGKEYKCKVSNKALPAPIEKTISKAKGQPREPQVYTLPPSRDELTKNRVSLTCLVKGFYPSDIAVEWESNGQPENNYKTTPPVLDSDGSFFLYSKLTVDKSRWQQGNVFSCSVMHEALHYHYTQKSLSLPPGK
Data returned: 5.4 fold
